- Tested on: SNB-75 CNS
- assay overview: NCI-60 one-dose screen, 48 h (100 = growth as untreated, 0 = no growth, -100 = all killed)
- condition notes: 10 µM unless noted
- Description: Growth inhibition of the SNB-75 human tumor cell line is measured as a screen for anti-cancer activity. Cells are grown in 96 well plates and exposed to the test compound for 48 hours. Compounds are tested at a single concentration, which is 10^-5 M for most compounds. The reported endpoint is percent growth (GI% or GIPRCNT), where numbers from 0 - 100% represent growth inhibition, and numbers from -100% - 0 represent cell death. For example, a value of 40 represents 60% growth inhibition. […]
The panel holds about 83,000 compounds, 20% with a hit somewhere; the sample as a whole holds those more often.
The threshold is inclusive: growth of exactly 50% counts as true; values below receive false.

- compound: "CCOC(=O)Oc1c(OC)cc(C(=O)O[C@@H]2C[C@@H]3CN4CCc5c([nH]c6cc(OC)ccc56)[C@H]4C[C@@H]3[C@H](C(=O)OC)[C@H]2OC)cc1OC"
  assayed system: "SNB-75 CNS"
  label value: "true"
- compound: "CCCNC(=O)Oc1ccc(/C(=C(\\C)c2ccccc2)c2ccc(OCCN3CCCCC3)cc2)cc1"
  assayed system: "SNB-75 CNS"
  label value: "true"
- compound: "c1ccc(-c2nnc(Nc3ccc4c(c3)OCCO4)o2)c(NCc2ccncc2)c1"
  assayed system: "SNB-75 CNS"
  label value: "false"
- compound: "COc1cc2c(cc1[N+](=O)[O-])-c1ccc([N+](=O)[O-])cc1/C2=N\\O"
  assayed system: "SNB-75 CNS"
  label value: "true"
- compound: "N#CC1=C(N)Oc2c(ccc3ccccc23)C1c1ccc([N+](=O)[O-])cc1 (centres undefined)"
  assayed system: "SNB-75 CNS"
  label value: "false"
- compound: "COc1ccc(Cn2nc(-c3ccccc3)c3c2CCc2cnoc2-3)cc1"
  assayed system: "SNB-75 CNS"
  label value: "true"
- compound: "CCn1ccnc1C(=O)/C=C/c1ccc(CC(=O)Nc2ccc(F)cc2)cc1"
  assayed system: "SNB-75 CNS"
  label value: "false"
- compound: "C[C@@H]1CN(Cc2ccc(/C=C/c3n[nH]c4ccc5nc(-c6cn[nH]c6C(F)(F)F)c6c(c5c34)CCCC6)cc2)C[C@H](C)O1"
  assayed system: "SNB-75 CNS"
  label value: "false"
- compound: "O=S(=O)(NCCCNc1nccc(-c2c(-c3cccc(O)c3)nc3occn23)n1)c1ccc(F)cc1"
  assayed system: "SNB-75 CNS"
  label value: "true"
- compound: "Cc1c2c(cc[n+]1Cc1ccccc1)c1ccc(OCC3CCCCC3)cc1n2CC1CCCCC1"
  assayed system: "SNB-75 CNS"
  label value: "false"
- compound: "O=C1CCC(NC(=S)Nc2ccccc2)N1 (centres undefined)"
  assayed system: "SNB-75 CNS"
  label value: "true"
- compound: "CC(=O)c1c[nH]c2ccc(-c3ccnc(Nc4ccc(NC(=O)C5CCCC5)c(CN5CCOCC5)c4)n3)cc12"
  assayed system: "SNB-75 CNS"
  label value: "false"
- compound: "CC(N)C(=O)NNc1n[nH]c(=S)n1N (centres undefined)"
  assayed system: "SNB-75 CNS"
  label value: "true"
- compound: "Nc1cc(N)c2cccnc2c1O"
  assayed system: "SNB-75 CNS"
  label value: "true"
- compound: "CCCCCCCC(=O)Nc1nc2[nH]c(CN3CCN(Cc4cccc(I)c4)CC3)c(CN3CCN(Cc4cccc(I)c4)CC3)c2c(=O)[nH]1"
  assayed system: "SNB-75 CNS"
  label value: "false"
- compound: "COc1ccc(/C=C/C(=O)c2ccc(Nc3ncnc4ccccc34)cc2)cc1OC"
  assayed system: "SNB-75 CNS"
  label value: "true"
- compound: "O=C(Nc1nc2ccc(S(=O)(=O)Nc3ccc(C4(C(F)(F)F)CC4)cc3)cc2[nH]1)c1cnccn1"
  assayed system: "SNB-75 CNS"
  label value: "false"
- compound: "CC(=O)Nc1ccc(C(=O)Nc2cc(-c3ccccc3)ccc2N)cc1"
  assayed system: "SNB-75 CNS"
  label value: "true"

====

- Tested on: HOP-62 NSCLC
- assay overview: NCI-60 one-dose screen, 48 h (100 = growth as untreated, 0 = no growth, -100 = all killed)
- condition notes: 10 µM unless noted
This is part of a sample that, as a whole, favours compounds with a hit. Of some 83,000 tested, about 20% had one in any assay.
Below: a set of entries, each annotated with reported growth.

- compound: "Fc1ccc(C2CC(c3cccc(Nc4ccncc4)c3)=NN2c2cc(Cl)cc(Cl)c2)cc1 (centres undefined)"
  growth / %: 44.4
- compound: "COc1ccc(C(O)c2cc3c(N)c(C(=O)Nc4cccc(Br)c4C)sc3nc2C)cc1 (centres undefined)"
  growth / %: 36.5
- compound: "COc1cc(NCC(C)(O)CN(CC(C)C)CC(C)C)c2nc(C)ccc2c1 (centres undefined)"
  growth / %: 92.5
- compound: "CS(=O)(=O)c1ccc(-c2cc(-c3nnc(SCC(=O)Nc4ccc(C(=O)/C=C/c5ccc(Cl)cc5)cc4)n3-c3ccccc3)c3ccccc3n2)cc1"
  growth / %: 95.1

====

- Test system: T-47D breast
- assay overview: NCI-60 one-dose screen, 48 h (100 = growth as untreated, 0 = no growth, -100 = all killed)
- condition notes: 10 µM unless noted
About 83,000 compounds went through this panel and 20% of them were active in at least one assay; those are over-represented in the sample as a whole. Active and inactive are the calls of the source. The calls were made as follows: active = growth percent below 10; inactive = the rest.
measurement label: growth

- compound: "O=C1Nc2cc(-c3ccncc3)ccc2/C1=C/c1ccc[nH]1"
  measurement label: "growth"
  reported: "-20.9% (active)"
- compound: "CCCCCCNC(=O)Oc1ccc(/C(=C(/CC)Cc2ccccc2)c2ccc(OCCN(CC)CC)cc2)cc1"
  measurement label: "growth"
  reported: "56.1% (inactive)"
- compound: "COC(=O)C(c1ccccc1)C(CC(=O)c1ccccc1)c1ccccc1 (stereo unspecified)"
  measurement label: "growth"
  reported: "76.2% (inactive)"
- compound: "CN1CCN(C(=O)OCc2nc3c(N4CCOCC4)nc(-c4ccccc4)nc3n2C)CC1"
  measurement label: "growth"
  reported: "-40.7% (active)"
- compound: "O=C1Nc2c(ccc(Cl)c2Cl)/C1=C/c1ccc([N+](=O)[O-])cc1"
  measurement label: "growth"
  reported: "85.3% (inactive)"
- compound: "COC(=O)Nc1nc2ccc(C(=O)c3cccc(I)c3)cc2[nH]1"
  measurement label: "growth"
  reported: "63.8% (inactive)"
- compound: "COc1cccc(-c2nc3occn3c2-c2ccnc(NCCCNS(=O)(=O)c3cccc(F)c3)n2)c1"
  measurement label: "growth"
  reported: "29.3% (inactive)"
- compound: "CCc1c(Nc2ccc(C)cc2)nc(N)[nH]c1=O"
  measurement label: "growth"
  reported: "96.4% (inactive)"
- compound: "CCC(C)C(N)C(=O)NNc1n[nH]c(=S)n1N (stereo unspecified)"
  measurement label: "growth"
  reported: "104% (inactive)"
- compound: "CC(=O)c1cccc(NS(=O)(=O)c2cccc(C(=O)Nc3ccc(Br)cc3)c2)c1"
  measurement label: "growth"
  reported: "26.7% [25 µM] (inactive)"
- compound: "CCSc1ccc2c(c1)N(CCCN1CCN(C)CC1)c1ccccc1S2"
  measurement label: "growth"
  reported: "47% (inactive)"
- compound: "CC1NC(=S)NC(=O)/C1=C/c1cc(=O)oc2c1ccc1ccccc12 (stereo unspecified)"
  measurement label: "growth"
  reported: "93.4% (inactive)"
- compound: "Clc1nc(Cl)c2ncn(CCOCCn3cnc4c(Cl)nc(Cl)nc43)c2n1"
  measurement label: "growth"
  reported: "-53.9% (active)"
- compound: "COc1ccc(NC(=O)c2sc3nc(C)c(C(O)c4ccc(OC)cc4)cc3c2N)cc1 (stereo unspecified)"
  measurement label: "growth"
  reported: "56.8% (inactive)"
- compound: "COc1cccc(CNCCN2C(=O)c3ccc4c5c(ccc(c35)C2=O)C(=O)N(CCNCc2cccc(OC)c2)C4=O)c1"
  measurement label: "growth"
  reported: "97.4% (inactive)"
- compound: "Cc1c(C(=O)NO)sc2ncnc(Nc3ccc(NC(=S)Nc4ccccc4)cc3)c12"
  measurement label: "growth"
  reported: "113% (inactive)"
- compound: "O=C(Nc1cccc(C2=NCCN2)c1)c1ccc(OCCCOc2ccc(C(=O)Nc3cccc(C4=NCCN4)c3)cc2)cc1"
  measurement label: "growth"
  reported: "18% (inactive)"
- compound: "CN1CCN(c2ccc(NC3=C(Cl)C(=O)c4ncccc4C3=O)cc2C#N)CC1"
  measurement label: "growth"
  reported: "-33.3% (active)"
- compound: "COc1ccc(-c2cnc(N)nc2-c2ccc(OC)cc2O)cc1"
  measurement label: "growth"
  reported: "93.7% (inactive)"
- compound: "COc1cc2nc(-c3ccc(C(F)(F)F)cc3)cc(OCCN3CCC(O)CC3)c2cc1OC"
  measurement label: "growth"
  reported: "74.9% (inactive)"
- compound: "Clc1cc(Cl)cc(N2N=C(c3cccc(Nc4ccncc4)c3)CC2c2ccccc2)c1 (stereo unspecified)"
  measurement label: "growth"
  reported: "77.7% (inactive)"
